Ref: ChEMBL document CHEMBL1914379

# method: Metabolic stability in human liver microsomes
# Format: ADME, Microsome
# assay_setup: read-out: Stability
measured_quantity: microsomal CLint

For orientation, consider the following solved cases.
CNC1CN(c2cc(NCC(C)(C)C)nc(N)n2)C1 | < 7 µL/min/mg
CN1C[C@@H]2CN(C(=O)c3cc4cc(Cl)ccc4[nH]3)C[C@@H]2C1 | 7 µL/min/mg
CN1C[C@@H]2CN(C(=O)c3nc4cc(F)ccc4[nH]3)C[C@@H]2C1 | < 7 µL/min/mg

Reported microsomal CLint ( CN[C@@H]1CCN(c2cc(NCC3CC3)nc(N)n2)C1 [ADRIFORANT] ) = < 7 µL/min/mg

Reported microsomal CLint ( CN1C[C@@H]2CN(C(=O)c3nc4cc(F)c(F)cc4[nH]3)C[C@@H]2C1 ) = < 7 µL/min/mg

Reported microsomal CLint ( CN1C[C@@H]2CN(C(=N)c3nc4cc(F)c(F)cc4[nH]3)C[C@@H]2C1 ) = < 7 µL/min/mg

Reported microsomal CLint ( CN1CCN(C(=O)c2cc3cc(Cl)ccc3[nH]2)CC1 [JNJ-7777120] ) = 28 µL/min/mg
